Test system: differentiating C2C12 skeletal muscle cells
EXPERIMENT DESCRIPTION: GRIM1 relocalization in differentiating C2C12 cells under signal pathway inhibitors
Type: cell-based, mouse
STATED CONDITIONS: day 0 to day 6 in differentiation medium; Gö6850 1 μM, LY294002 10 μM, Ro31-8220 0.5 μM, PD98059 10 μM, fasudil 10 μM
Method: The cells were cultured in the media recommended by the ATCC on 15 cm cell culture dishes under sterile conditions. Cells are subcultured in a ratio of 1:5 to 1:20 every two to three days and kept at a maximum of 60% confluence. […] Cells are seeded in the desired cell density on autoclaved slides and fixed on the support with 5% paraformaldehyde for 10′. […] The slides are preserved in Fluoromount M (Southern Biotechnology Associates) and analyzed using a fluorescence microscope. […]
MEASURED METRIC: effect on relocalization or number of nuclear speckles of GRIM1

- Cn1cc(C2=C(c3cn(CCCSC(=N)N)c4ccccc34)C(=O)NC2=O)c2ccccc21 [Ro31-8220]: no effect
- C[S+]([O-])c1ccc(-c2nc(-c3ccncc3)c(-c3ccc(F)cc3)[nH]2)cc1 (stereo not drawn) [SB203580]: no effect
- CC(/C=C/C(=O)NO)=C\[C@@H](C)C(=O)c1ccc(N(C)C)cc1 [trichostatin A]: no effect
